- Test system: rice (Oryza sativa)
- PROTOCOL: Test D flooded paddy test, visual plant response rating
- Format: in vivo
- APPLIED_CONDITIONS: 250 g ai/ha, scale 0 to 100 (0 no effect, 100 complete control), 13 to 15 d
MEASURE_NAME: Plant response rating, Rice (Flood)
// return a plain number; no unit text

-- ask State its Plant response rating, Rice (Flood) on rice (Oryza sativa): CON=C(c1cc(Cl)cc(Cl)c1Cl)c1c(O)c(C)nn(C)c1=O [Compound 214]
-- reply 45

-- ask State its Plant response rating, Rice (Flood) on rice (Oryza sativa): CO/N=C(\c1c(O)c(Cl)nn(C)c1=O)c1ccc(F)c2ccccc12
-- reply 0

-- ask State its Plant response rating, Rice (Flood) on rice (Oryza sativa): CO/N=C(\c1ccc(F)c(Cl)c1)c1c(O)c(C)nn(C)c1=O
-- reply 0

-- ask State its Plant response rating, Rice (Flood) on rice (Oryza sativa): CON=C(c1cc(Cl)cc(Cl)c1Cl)c1c(O)c(C)nn(C)c1=O [Compound 213]
-- reply 40

-- ask State its Plant response rating, Rice (Flood) on rice (Oryza sativa): Cc1nn(C)c(=O)c(/C(=N/OC(C)C)c2cc(Cl)cc(Cl)c2F)c1O
-- reply 70
